molecular target: HGK/MAP4K4 (Homo sapiens, UniProt O95819); experiment: Radiolabeled ATP kinase assay (Reaction Biology Corp.), HGK; assay type: biochemical; parameters: purchased Reaction Biology Corp; conditions: [Cmpd] 0.1 μM; 10 μM ATP; read-out: % Enzyme Activity (relative to DMSO controls), HGK/MAP4K4, Data 1
Sequence (O95819 whole entry): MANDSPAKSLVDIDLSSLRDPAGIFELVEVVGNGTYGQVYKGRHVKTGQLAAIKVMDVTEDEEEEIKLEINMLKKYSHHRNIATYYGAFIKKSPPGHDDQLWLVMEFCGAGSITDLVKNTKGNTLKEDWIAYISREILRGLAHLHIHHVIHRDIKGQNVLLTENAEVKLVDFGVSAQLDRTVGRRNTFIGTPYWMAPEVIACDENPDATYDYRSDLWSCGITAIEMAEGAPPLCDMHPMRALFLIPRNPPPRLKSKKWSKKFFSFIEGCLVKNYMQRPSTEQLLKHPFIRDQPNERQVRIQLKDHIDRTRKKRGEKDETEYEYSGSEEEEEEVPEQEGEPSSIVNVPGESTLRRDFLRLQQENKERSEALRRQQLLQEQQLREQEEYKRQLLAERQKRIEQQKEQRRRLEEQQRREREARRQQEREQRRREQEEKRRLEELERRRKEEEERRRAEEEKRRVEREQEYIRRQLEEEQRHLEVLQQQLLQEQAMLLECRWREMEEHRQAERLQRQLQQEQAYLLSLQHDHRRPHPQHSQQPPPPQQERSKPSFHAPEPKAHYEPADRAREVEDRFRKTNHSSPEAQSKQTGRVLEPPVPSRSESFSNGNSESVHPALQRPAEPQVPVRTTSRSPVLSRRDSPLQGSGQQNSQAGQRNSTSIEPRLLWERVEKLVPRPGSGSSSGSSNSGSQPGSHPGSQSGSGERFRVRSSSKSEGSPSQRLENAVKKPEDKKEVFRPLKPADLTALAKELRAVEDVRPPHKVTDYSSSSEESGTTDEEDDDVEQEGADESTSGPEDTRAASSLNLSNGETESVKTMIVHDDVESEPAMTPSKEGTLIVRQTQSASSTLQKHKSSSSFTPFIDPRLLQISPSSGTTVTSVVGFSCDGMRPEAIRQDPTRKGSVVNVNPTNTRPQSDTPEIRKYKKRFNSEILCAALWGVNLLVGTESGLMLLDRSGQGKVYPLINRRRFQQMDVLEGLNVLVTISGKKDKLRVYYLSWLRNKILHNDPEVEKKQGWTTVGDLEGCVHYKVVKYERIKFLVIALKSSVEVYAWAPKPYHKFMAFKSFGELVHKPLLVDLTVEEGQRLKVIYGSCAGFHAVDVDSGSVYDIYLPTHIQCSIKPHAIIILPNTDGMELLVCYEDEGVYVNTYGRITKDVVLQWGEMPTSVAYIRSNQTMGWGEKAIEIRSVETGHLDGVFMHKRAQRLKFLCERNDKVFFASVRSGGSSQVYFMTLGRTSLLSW
Reported remaining activity at 0.1 µM by item:
endpoint.label: remaining activity at 0.1 µM

compound | endpoint.result
COc1ccc(-c2c[nH]c3ncc(-c4ccc(CN5CCN(C)CC5)cc4)cc23)cc1C [Compound 7aq] | 20%
CN1CCN(Cc2ccc(-c3cnc4[nH]cc(-c5cnn(Cc6ccccc6)c5)c4c3)cc2)CC1 [Compound 7ah] | 3.56%
CN1CCN(Cc2ccc(-c3cnc4[nH]cc(-c5cccc(F)c5)c4c3)cc2)CC1 [Compound 7y] | 1.53%
COc1ccc(COc2ccc(-c3c[nH]c4ncc(-c5ccc(CN6CCN(C)CC6)cc5)cc34)cc2)cc1 [Compound 7ao] | 1.98%
CN1CCN(Cc2ccc(-c3cnc4[nH]cc(-c5ccc(Cl)cc5Cl)c4c3)cc2)CC1 [Compound 7ae] | 42.7%
COc1ccccc1-c1c[nH]c2ncc(-c3ccc(CN4CCN(C)CC4)cc3)cc12 [Compound 7at] | 4.83%
CN1CCN(Cc2ccc(-c3cnc4[nH]cc(-c5ccc(F)c(C(=O)O)c5)c4c3)cc2)CC1 [Compound 7i] | 54.6%
COc1cc(-c2c[nH]c3ncc(-c4ccc(CN5CCN(C)CC5)cc4)cc23)cc(OC)c1OC [Compound 7ap] | 6.76%
CC(=O)c1ccc(-c2c[nH]c3ncc(-c4ccc(CN5CCN(C)CC5)cc4)cc23)cc1 [Compound 7x] | 7.1%
CN1CCN(Cc2ccc(-c3cnc4[nH]cc(-c5cc(C(F)(F)F)cc(C(F)(F)F)c5)c4c3)cc2)CC1 [Compound 7aj] | 86.6%
CN1CCN(Cc2ccc(-c3cnc4[nH]cc(-c5cccc(C(=O)O)c5)c4c3)cc2)CC1 [Compound 7j] | 20.6%
CN1CCN(Cc2ccc(-c3cnc4[nH]ccc4c3)cc2)CC1 [Compound 4] | 88.3%
CN1CCN(Cc2ccc(-c3cnc4[nH]cc(-c5ccccc5)c4c3)cc2)CC1 [Compound 7ac] | 6.69%
CN1CCN(Cc2ccc(-c3cnc4[nH]cc(-c5cccc(N)c5)c4c3)cc2)CC1 [Compound 7h] | 87.4%
CN1CCN(Cc2ccc(-c3cnc4[nH]cc(-c5cc6ccccc6[nH]5)c4c3)cc2)CC1 [Compound 7a] | 58.8%
Cc1ccc(C)c(-c2c[nH]c3ncc(-c4ccc(CN5CCN(C)CC5)cc4)cc23)c1 [Compound 7af] | 38.7%

====

Reported remaining activity at 0.1 µM by item:
biological target: panel of 60 human kinases (Homo sapiens); construct: purchased Reaction Biology Corp; test: Radiolabeled ATP kinase assay, panel of 60 kinases (Table S5); assay type: biochemical; details: CDK2/cyclin A1; 0.1 μM; 10 μM ATP; read-out: % Enzyme Activity (relative to DSMO controls)
endpoint.label: remaining activity at 0.1 µM (%)

molecular.string | endpoint.label | endpoint.result
CN1CCN(Cc2ccc(-c3cnc4[nH]cc(-c5cccc(Cl)c5)c4c3)cc2)CC1 | remaining activity at 0.1 µM | 97
Cc1nn(C)c(C)c1-c1c[nH]c2ncc(-c3ccc(CN4CCN(C)CC4)cc3)cc12 | remaining activity at 0.1 µM | 87.8
CN1CCN(Cc2ccc(-c3cnc4[nH]cc(-c5ccc6c(c5)OCCO6)c4c3)cc2)CC1 | remaining activity at 0.1 µM | 38.8
CN1CCN(Cc2ccc(-c3cnc4[nH]cc(-c5ccncc5)c4c3)cc2)CC1 | remaining activity at 0.1 µM | 60.2
